Target Or System: T1, MHC class I molecule A*0201 (biotin (bound to streptavidin-coated plate))
T1 construct: also called A2; HLA-A2
Assay Text: iTopia iScore
Note to self: values exactly at 0.1 are 1. So iScore at or above 0.1 is 1, below is -1.

Incoming: Determine whether this binder has iScore no lower than 0.1: AQLPSLRHL [5T4 9-mer peptide 116 AQLPSLRHL]
Outgoing: 1

Incoming: Would you say FARRPPLAE [5T4 9-mer peptide 56 FARRPPLAE] shows iScore at minimum 0.1?
Outgoing: -1

Incoming: Determine whether this binder has iScore no lower than 0.1: ELILNHIVP [5T4 9-mer peptide 89 ELILNHIVP]
Outgoing: -1

Incoming: Quick check, iScore >= 0.1? GAFARRPPL [5T4 9-mer peptide 55 GAFARRPPL]
Outgoing: 1

Incoming: Does the binder ASVSAPSPL [5T4 9-mer peptide 84 ASVSAPSPL] have recorded iScore that is 0.1 or more?
Outgoing: -1

Incoming: # check: iScore of SPLVELILN [5T4 9-mer peptide 87 SPLVELILN] is greater than or equal to 0.1
Outgoing: -1

Incoming: Reported iScore reaches at least 0.1 for ERQNRSFEG [5T4 9-mer peptide 95 ERQNRSFEG] ?
Outgoing: -1

Incoming: Could you tell me if the measured iScore of QNRSFEGMV [5T4 9-mer peptide 96 QNRSFEGMV] reaches 0.1 or more?
Outgoing: -1

Incoming: Tell me whether iScore is at least 0.1 here: LASNHFLYL [5T4 9-mer peptide 109 LASNHFLYL]
Outgoing: 1

Incoming: Does the binder GLRRLELAS [5T4 9-mer peptide 106 GLRRLELAS] have recorded iScore that is 0.1 or more?
Outgoing: -1

Incoming: Hi, just wondering whether GSRLDEVRA [5T4 9-mer peptide 64 GSRLDEVRA] shows iScore of 0.1 or higher.
Outgoing: 1

Incoming: Exam item: decide whether the reported iScore for NQLAVLPAG [5T4 9-mer peptide 51 NQLAVLPAG] is at least 0.1.
Outgoing: 1

Incoming: Check this binder for iScore at or above 0.1: SAQPPLPDQ [5T4 9-mer peptide 27 SAQPPLPDQ]
Outgoing: -1

Incoming: Item AVSAQPPLP [5T4 9-mer peptide 26 AVSAQPPLP] with iScore of 0.1 or above?
Outgoing: -1

Incoming: Determine whether this binder has iScore no lower than 0.1: ELAALNLSG [5T4 9-mer peptide 60 ELAALNLSG]
Outgoing: -1

Incoming: Determine whether this binder has iScore no lower than 0.1: RDVLAQLPS [5T4 9-mer peptide 114 RDVLAQLPS]
Outgoing: -1

Incoming: State whether the measured iScore reaches 0.1, counting equality as reaching it, for RLDEVRAGA [5T4 9-mer peptide 65 RLDEVRAGA]
Outgoing: 1

Incoming: Entry AYVRNLFLT [5T4 9-mer peptide 46 AYVRNLFLT] : is its iScore no less than 0.1?
Outgoing: 1

Incoming: Record CVNRNLTEV [5T4 9-mer peptide 39 CVNRNLTEV] ; criterion: iScore no lower than 0.1. Met?
Outgoing: -1

Incoming: Textbook exercise: given the entry VSSSSPTSS [5T4 9-mer peptide 15 VSSSSPTSS] , state whether its iScore is greater than or equal to 0.1.
Outgoing: -1

Incoming: Quick check, iScore >= 0.1? RRPPLAELA [5T4 9-mer peptide 57 RRPPLAELA]
Outgoing: -1

Incoming: Quick check: does GGCSRGPAA [5T4 9-mer peptide 2 GGCSRGPAA] have iScore greater than or equal to 0.1?
Outgoing: -1

Incoming: Evaluate ARLALVLLG [5T4 9-mer peptide 10 ARLALVLLG] : iScore at minimum 0.1?
Outgoing: 1

Incoming: # check: iScore of GMVVAALLA [5T4 9-mer peptide 99 GMVVAALLA] is greater than or equal to 0.1
Outgoing: 1
